- Test system: DFO2036
- run.description: qHTS profiling for inhibitors of Plasmodium falciparum proliferation (AID 504749); also: nearly all actives have a fitted effect of over 60% in size
- experimental.parameters: P. falciparum in erythrocytes, SYBR Green DNA, 72 h; series mostly up to 28.7 µM
- Description: NIH National Institute of Allergy and Infectious Diseases [NIAID] NIH Chemical Genomics Center [NCGC] […] Because mature erythrocytes lack DNA, only Plasmodium-derived DNA is detected. NCGC Assay Protocol Summary: The SYBR Green viability assay was adapted from a method described previously (Plouffe et al., 2008). […] The following morning, fluorescence intensity at 485(14) nm excitation and 535(25) nm emission wavelengths was measured on an EnVision (Perkin Elmer) plate reader. […]
Inconclusive results are not listed. Active and inactive are the calls of the source. Calls follow the shape of the dose curve; as a rule, active = well fitted inhibition curve with a large enough effect; inconclusive = small, poorly fitted or top-dose-only effect; inactive = flat fitted curve, though single readings scatter.
The reply should be one of these categories: active, inactive

>>> assigned_label("C=C1/C(=C\\C=C2/CCC[C@]3(C)[C@@H]([C@H](C)/C=C/[C@@H](O)C4CC4)CC[C@@H]23)C[C@@H](O)C[C@@H]1O")
"inactive"
>>> assigned_label("CCN1CCN(C(=O)NC(C(=O)NC2C(=O)N3C(C(=O)O)=C(CSc4nnnn4C)CSC23)c2ccc(O)cc2)C(=O)C1=O (stereo not given)")
"inactive"
>>> assigned_label("CCN(CC)C(=O)[C@@]1(c2ccccc2)C[C@@H]1CN")
"inactive"
>>> assigned_label("CC1=C(C/C=C(\\C)CCCC(C)CCCC(C)CCCC(C)C)C(=O)c2ccccc2C1=O (stereo not given)")
"inactive"
>>> assigned_label("CC(C)C[C@@H](NC(=O)[C@@H](Cc1ccccc1)NC(=O)c1cnccn1)B(O)O")
"active"

Name the outcome recorded for `CO/N=C(/C(=O)N[C@@H]1C(=O)N2C(C(=O)O)=C(CSc3nc(C)c(CC(=O)O)s3)CS[C@H]12)c1csc(N)n1` in the assay.
inactive

Name the outcome recorded for C=C[C@H]1CN2CCC1C[C@H]2[C@H](O)c1ccnc2ccc(OC)cc12 (stereo not given in full) in the assay.
active

Name the outcome recorded for O=c1[nH]c(=O)n(C2C[C@H](O)[C@@H](CO)O2)cc1C(F)(F)F (stereo not given in full) in the assay.
inactive

Name the outcome recorded for `CC[C@@H]1/C=C(\C)C[C@H](C)C[C@H](OC)[C@H]2O[C@@](O)(C(=O)C(=O)N3CCCC[C@H]3C(=O)O[C@H](/C(C)=C/[C@@H]3CC[C@H](Cl)[C@H](OC)C3)[C@H](C)[C@@H](O)CC1=O)[C@H](C)C[C@@H]2OC` in the assay.
inactive

Name the outcome recorded for CC1(C)SC2C(NC(=O)C(C(=O)O)c3ccccc3)C(=O)N2C1C(=O)O (stereo not given) in the assay.
inactive

Name the outcome recorded for `C/C(=C(/CCO)SS/C(CCO)=C(\C)N(C=O)Cc1cnc(C)nc1N)N(C=O)Cc1cnc(C)nc1N` in the assay.
inactive

Name the outcome recorded for CCCCCCCCCCCCCCCC(=O)OCC(COP(=O)(O)OCC[N+](C)(C)C)OC(=O)CCCCCCCCCCCCCCC (stereo not given) in the assay.
inactive

Name the outcome recorded for NC(C(=O)O)c1ccc(O)cc1 (stereo not given) in the assay.
inactive

Name the outcome recorded for C[C@]12C=CC(=O)N[C@@H]1CC[C@@H]1C2CC[C@]2(C)C(C(=O)Nc3cc(C(F)(F)F)ccc3C(F)(F)F)CC[C@@H]12 (stereo not given in full) in the assay.
inactive

Name the outcome recorded for `C/C=C\C[C@H](C)[C@H](O)[C@H]1C(=O)N[C@@H](CC)C(=O)N(C)CC(=O)N(C)[C@@H](CC(C)C)C(=O)N[C@@H](C(C)C)C(=O)N(C)[C@@H](CC(C)C)C(=O)N[C@@H](C)C(=O)N[C@@H](C)C(=O)N(C)[C@@H](CC(C)C)C(=O)N(C)[C@@H](CC(C)C)C(=O)N(C)[C@@H](C(C)C)C(=O)N1C` in the assay.
active

From: PubChem BioAssay (NCATS)
